- Tested on: OVCAR-8 ovarian
- measurement.notes: NCI-60 one-dose screen, 48 h (100 = growth as untreated, 0 = no growth, -100 = all killed)
- stated.conditions: 10 µM unless noted
Compounds without any hit were thinned out: in the full panel of roughly 83,000, 20% have a hit.
Record true (1) whenever growth is at 50% or higher; record false (0) when lower.

Test whether the compound Cc1ccc(CNc2ccc(Cl)cc2NCc2ccc(C)c(O)c2)cc1O records growth of 50% or higher.
false (0)

growth >= 50% for COC(C(=O)[C@@H](O)[C@@H](C)O)[C@@H]1Cc2cc3cc(O[C@H]4C[C@@H](O[C@H]5C[C@@H](O)[C@H](O)C(C)O5)[C@H](O)C(C)O4)cc(O)c3c(O)c2C(=O)[C@H]1O[C@H]1C[C@@H](O[C@H]2C[C@@H](O[C@H]3C[C@@H](OC)[C@H](O)C(C)O3)[C@@H](O)C(C)O2)[C@H](O)C(C)O1 (stereo partly drawn) ?
false (0)

Confirm if growth reported for the compound Cn1cccc1C(=O)C1C(c2cccc([N+](=O)[O-])c2)C2C3CCCCC3CN2C12C(=O)Nc1ccc(Cl)cc12 (stereo not drawn) is 50% or above.
true (1)

Entry CC(C)NC1CCC(Nc2ccnc3cc(Cl)ccc23)CC1 (stereo not drawn) : is its growth no less than 50%?
true (1)

# bool: growth of CCN1C(=O)N(CC)C2C1NN=c1s/c(=C\c3cccc([N+](=O)[O-])c3)c(=O)n12 (stereo not drawn) >= 50%
false (0)

Check the entry COc1ccc(-c2csc(N(C(=O)N3CCN(c4cc5c(cc4F)c(=O)c(C(=O)O)cn5C4CC4)CC3)c3ccccc3)n2)cc1 : does growth equal or exceed 50%?
false (0)

Can CCN(CC)CCNC(=O)c1cn2ncnc(Oc3ccc(NC(=O)Nc4ccc(Cl)c(C(F)(F)F)c4)c(F)c3)c2c1C be said to have growth at or above 50%?
false (0)

Form field: growth at least 50%? Entry: O=C(CSc1nc2sc3c(c2c(=O)n1-c1ccccc1)CCCCC3)N/N=C/c1ccc(F)cc1
false (0)

Answer whether growth of O=Nc1c(-c2c(O)[nH]c3ncccc23)[nH]c2ccccc12 is greater than or equal to 50%.
true (1)

Is growth for COC(=O)c1cc(-c2ccc(OC)cc2)[nH]c1N/N=C/c1c(Cl)cccc1Cl at or above 50%?
false (0)

Is growth at least 50%? Consider COc1ccc2[nH]cc(-c3nc(-c4c[nH]c5ccncc45)cs3)c2c1
false (0)

# bool: growth of C/C(=N\NC(=O)c1ccccc1O)c1cccc(/C(C)=N/NC(=O)c2ccccc2O)n1 >= 50%
false (0)

Dear colleague, could you confirm whether N#CC1=C(N)Oc2c(sc3c(F)cccc23)C1c1ccc(F)cc1 (stereo not drawn) has growth at or above 50%?
false (0)

Evaluate C1=C(N2CCCC2)CCC1 : growth at minimum 50%?
true (1)

API: above_or_equal(metric=growth, cutoff=50%) for item N#CCSc1nnc2n(Cc3ccccc3)c(=O)c3c4c(sc3n12)CCCC4
true (1)

Check the entry O=[N+]([O-])c1ccc(S(=O)(=O)N2CCN(C3=NS(=O)(=O)c4ccccc4N3c3ccccc3)CC2)cc1 : does growth equal or exceed 50%?
true (1)

Test whether the compound O=C(Nc1ncc(Cc2ccc(Cl)c(C(F)(F)F)c2)s1)c1ccc2nnsc2c1 records growth of 50% or higher.
true (1)

Decide: is the reported value of growth for CCC(C)N(c1ccc(Cl)cc1)c1nc(-c2ccc(Br)cc2)cs1 (stereo not drawn) equal to or greater than 50%?
true (1)
